subject_of_test: Adenosine receptor A3 (Homo sapiens)
Sequence (whole entry): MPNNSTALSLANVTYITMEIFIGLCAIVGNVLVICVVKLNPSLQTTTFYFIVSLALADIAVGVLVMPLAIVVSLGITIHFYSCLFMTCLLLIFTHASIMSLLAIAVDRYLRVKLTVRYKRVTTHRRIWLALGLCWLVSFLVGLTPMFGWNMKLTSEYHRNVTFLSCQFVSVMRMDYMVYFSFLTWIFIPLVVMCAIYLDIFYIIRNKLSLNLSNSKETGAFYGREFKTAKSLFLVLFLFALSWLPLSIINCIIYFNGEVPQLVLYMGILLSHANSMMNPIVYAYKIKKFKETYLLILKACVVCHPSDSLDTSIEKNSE
experiment_notes: Displacement of [125I]AB-MECA from human adenosine A3 receptor expressed in CHO cells at 10 uM
Threshold rule: inhibition greater than or equal to 40% is True; below that, False.

{"columns": ["compound", "label_value"],
 "data": [
  ["CCOC(=O)c1cnc2c(cnn2CC(Cl)c2ccccc2)c1NCCc1ccc(OC)cc1 (stereo not given)", "True"],
  ["CCOC(=O)c1cnc2c(cnn2CC(Cl)c2ccccc2)c1NCCc1ccc(F)cc1 (stereo not given)", "False"],
  ["CC(C)OC(=O)c1cnc2c(cnn2CC(Cl)c2ccccc2)c1NC1CC1 (stereo not given)", "False"],
  ["CCOC(=O)c1cnc2c(cnn2CC(Cl)c2ccccc2)c1NCCc1ccccc1F (stereo not given)", "True"]
]}
